The reported measurements were obtained from the supplement of paper PMC10126150.

system: ATP; test: switch fluorescence ratio, 500 uM ATP over buffer (Cy3 cluster intensity, sum of 5 cycles each) (fold (ratio)); higher = stronger signal-on switching upon ATP binding; sequences stand for … in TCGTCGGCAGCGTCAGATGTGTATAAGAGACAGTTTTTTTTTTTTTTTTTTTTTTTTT…TC; conditions: aptamer strand: ATP DNA aptamer (quencher-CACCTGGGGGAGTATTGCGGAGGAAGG + anchor), 100 nM annealed; ATP concentration: 500 uM;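 note: ATP exposure 15 min at 22 °C before imaging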
endpoint: switch fluorescence ratio
Note: the reply should be a number with no unit written.

sequence_text=TTAGGCGGGC test_system=ATP endpoint="switch fluorescence ratio" numeric_result=1.02
sequence_text=ATCTGTCAAG test_system=ATP endpoint="switch fluorescence ratio" numeric_result=0.995
sequence_text=TTTTTGAACG test_system=ATP endpoint="switch fluorescence ratio" numeric_result=1.02

Tell me switch fluorescence ratio reported for TATTTGGGGC
1.01

Tell me switch fluorescence ratio reported for GGGGGAAGCT
1.03

Tell me switch fluorescence ratio reported for GGCGGGGGAA
1.01
